- System: A549/ATCC NSCLC
- test: NCI-60 one-dose screen, 48 h
- recorded conditions: 10 µM unless noted
Compounds without any hit were thinned out: in the full panel of roughly 83,000, 20% have a hit. The source made the active and inactive calls. Rule for the calls: active = growth percent below 10; inactive = the rest.
Classes used: 1 = active, -1 = inactive

- CN1CCN(CCCOc2ccc3ncnc(Nc4ccc(Oc5cccc(F)c5)c(Cl)c4)c3c2)CC1: -1
- Cn1c(=O)c2c(nc(NC3=NS(=O)(=O)c4ccccc43)n2Cc2ccccc2)n(C)c1=O: -1
- CCOC(=O)c1c(C)c2c(n1C)CSc1cc(S(=O)(=O)c3ccccc3)c(=O)[nH]c1-2: -1
- CC1(C)CC2=C3C=C[C@@H]4[C@@]5(C)CC[C@H](O)C(C)(C)[C@@H]5CC[C@@]4(C)[C@]3(C)CC[C@@]2(C(=O)O)CC1=O: -1
- COc1ccc(C(O)c2cc3c(N)c(C(=O)Nc4cccc(Cl)c4)sc3nc2C)cc1 (configuration not stated): -1
- CCN(CC)S(=O)(=O)c1ccc(S(=O)(=O)N2CCC[C@@H](C(=O)N3CCN(C(=O)OC(C)(C)C)CC3)C2)cc1: -1
- Cc1c(Cl)cccc1C(=O)Nc1nc2c(s1)CN(C(=O)Nc1cccc(C(F)(F)F)c1)CC2: -1
- Cn1cc(-c2ccc3cc(-c4ccc(CC(=O)Nc5cc(C(C)(C)C)on5)cc4)cnc3c2)cn1: -1
- COc1cc(C2Cc3ncccc3-c3[nH]c(=O)c4cccnc4c32)cc(OC)c1OC (configuration not stated): -1
- CCN(CC)c1ccc(/C=C\c2cc(C)c3cc(C)ccc3n2)cc1: -1
- N#C/C(=C\c1ccc(-c2ccc(Cl)cc2)o1)c1ccc(Cl)cc1: -1
- COc1ccc(NC(=O)c2sc3nc(C)c(C(O)c4ccccc4)cc3c2N)cc1 (configuration not stated): -1
- COc1ccc(-c2cc(-c3cc(OC)c(OC)c(OC)c3)c(C#N)c(=O)n2CCCCCC(=O)NO)cc1: -1
- COC(=O)C1=C(C)NC(C)=C(C(=O)OCC(C)C)C1c1ccccc1[N+](=O)[O-] (configuration not stated): -1
- O=C1/C(=C/c2ccccc2[N+](=O)[O-])COc2ccc(O)cc21: -1
- C#CC#CC#CC#CC#CC#CC#CC#CCC1OCC(COC(=O)O[C@@H](C(=O)O[C@H]2C[C@@]3(O)[C@@H](OC(=O)c4ccccc4)[C@@H]4[C@]5(OC(C)=O)CO[C@@H]5C[C@H](O)[C@@]4(C)C(=O)[C@H](OC(C)=O)C(=C2C)C3(C)C)[C@@H](NC(=O)c2ccccc2)c2ccccc2)O1 (some centres not stated): -1
- CN1CCN(Cc2ccc(NC(=O)c3cncc(C#Cc4cnn5ccccc45)c3)cc2C(F)(F)F)CC1: 1

---

- Tested on: IGROV1 ovarian
- test: NCI-60 one-dose screen, 48 h
- recorded conditions: 10 µM unless noted
Compounds without any hit were thinned out: in the full panel of roughly 83,000, 20% have a hit. Active and inactive are the calls of the source. The calls were made as follows: active = growth percent below 10; inactive = the rest.
Classes used: yes (1) = active, no (0) = inactive

* CC1CN=C(c2cccc(-c3ccc(-c4ccccc4)o3)c2)N1 (stereo not given) | no (0)
* COc1cc2cc(NCc3ccc(OC(F)F)cc3)nc(C)c2cc1OC | no (0)
* CN1C(=O)N(C)C2C1NC(=S)N2/N=C/C=C/c1ccccc1[N+](=O)[O-] (stereo not given) | no (0)
* Cc1ccc(/C=C/C(=O)c2ccc(NC(=O)CSc3nc4c([nH]3)c(=O)n(C)c(=O)n4C)cc2)c(C)c1 | no (0)
* Cn1cc(/C=C2/C(=O)Nc3ccccc32)c2ccccc21 | no (0)
* Nc1ncnc2c1c(-c1ccc(Oc3ccccc3)cc1)nn2CC1SSCC1O (stereo not given) | no (0)
* Fc1ccc2c(c1)c(-c1nc(-c3c[nH]c4ncccc34)cs1)cn2CCCN1CCOCC1 | no (0)
* Cc1ccc(O)c(NC(=O)c2ccc(CNc3ccnc(C(F)(F)F)c3)cc2)c1 | no (0)
* Clc1nccc2c(-c3csc(-c4c[nH]c5ccccc45)n3)c[nH]c12 | no (0)
* CCN(CCO)CC(C)Nc1ccc([N+](=O)[O-])c2sc3ccccc3c(=O)c12 (stereo not given) | yes (1)
* CC1COCC(C)N1C1=C(Cl)C(=O)c2ccccc2C1=O (stereo not given) | no (0)
* C[C@@H]1O[C@@H](O[C@@H]2C[C@H](c3ccc4c(c3O)C(=O)C3=C(C4=O)[C@@]4(O)C(=O)C[C@](C)(O)C[C@@]4(O)C=C3)O[C@H](C)[C@H]2O)C[C@H](O)[C@@H]1O | no (0)
* COc1ccc(Cc2cnc(NC(=O)c3sc4ccccc4c3Cl)s2)cc1 | no (0)
* O=C(CN1C(=O)/C(=C/c2ccco2)SC1=S)NCCc1c[nH]c2ccc(F)cc12 | no (0)
* CN(C)c1ccc(/C=C/C(=O)c2ccc(Nc3nc(Nc4ccc(F)cc4)nc(Nc4ccc(Cl)cc4)n3)cc2)cc1 | no (0)
* COc1ccc(NC(=O)c2sc3nc(C)c(C(O)c4ccccc4)cc3c2N)cc1 (stereo not given) | no (0)
* COc1ccc2nc(SCC(=O)Nc3ccccc3C)[nH]c2c1 | no (0)
* COc1cc(-c2nc(SCCC(C)C)nc(N3CCOCC3)c2C#N)cc(OC)c1OC | no (0)
* CCCCSCC(=O)c1ccccc1 | no (0)
* O=C(OC[C@@H]1CO1)c1cccc2c(=O)c3ccccc3[nH]c12 | yes (1)

---

- Tested on: HS 578T breast
- test: NCI-60 one-dose screen, 48 h
- recorded conditions: 10 µM unless noted
Compounds without any hit were thinned out: in the full panel of roughly 83,000, 20% have a hit. The source made the active and inactive calls. How the source made its calls: active means growth percent below 10; inactive means the rest.
Classes used: 1 (yes) for active, 0 (no) for inactive

- COc1ccc2cc(Cn3cc[n+](Cc4ccc5ccccc5c4)c3)ccc2c1: 0 (no)
- Cn1ncc2ccc(-c3nc(-c4ccccc4)[nH]c3-c3n[nH]c(=O)n3C3CC3)cc21: 0 (no)
- N=C(N)c1ccc(-c2ccc(-c3ccc(Cl)cc3Cl)s2)cc1F: 1 (yes)
- COc1ccc(/C=C/C(=O)c2cc3c(N)c(C(=O)Nc4ccccc4C)sc3nc2C)cc1: 0 (no)
- COc1ccc(C/C(C)=C(\c2ccc(O)cc2)c2ccc(OCCN3CCCC3)cc2)cc1: 0 (no)
- CCOC(=O)c1c(C)c2c(n1C)CSc1cc(S(=O)(=O)c3ccccc3)c(=O)[nH]c1-2: 0 (no)
- CN1C(=O)N(C)C2C1NC(=S)N2/N=C/C=C/c1ccccc1[N+](=O)[O-] (stereo not given): 0 (no)
- Cc1c(Cl)cccc1C(=O)Nc1nc2c(s1)CN(C(=O)Nc1cccc(C(F)(F)F)c1)CC2: 0 (no)
- O=C1NC(=O)c2c1c1c3ccccc3[nH]c1c1oc3cc(Br)ccc3c21: 0 (no)
- N=c1sc(Cc2cc(Cl)ccc2Cl)cn1CC(=O)c1ccccc1: 0 (no)

---

Item-by-item account of growth
- Test system: HT29 colon
- test: NCI-60 one-dose screen, 48 h (100 = growth as untreated, 0 = no growth, -100 = all killed)
- recorded conditions: 10 µM unless noted
- Description: Growth inhibition of the HT29 human tumor cell line is measured as a screen for anti-cancer activity. Cells are grown in 96 well plates and exposed to the test compound for 48 hours. Compounds are tested at a single concentration, which is 10^-5 M for most compounds. The reported endpoint is percent growth (GI% or GIPRCNT), where numbers from 0 - 100% represent growth inhibition, and numbers from -100% - 0 represent cell death. For example, a value of 40 represents 60% growth inhibition. […]
This is part of a sample that, as a whole, favours compounds with a hit. Of some 83,000 tested, about 20% had one in any assay.
metric: growth (%)

• COC(=O)C1=C(C(=O)Nc2cccnc2)C2OC1(C(Cc1ccccc1)Oc1ccccc1)C1OC21 (stereo not given) = 59.1
• CCCCN1C(=O)/C(=c2\sc3n(c2=O)NC2C(N=3)N(CC)C(=O)N2CC)c2ccccc21 (stereo not given) = 16
• CN(CCC#N)c1ccc(/C=C2\NC(=O)NC2=O)cc1 = 82.4
• CCOC(=O)C(=Cc1cccc(C#N)c1)C(=O)OCC = 20
• COc1cc2c(/C=C3\C(=O)Nc4ccccc43)c(C(=O)O)[nH]c2cc1C = 89.8

---

- Tested on: M14 melanoma
- test: NCI-60 one-dose screen, 48 h (100 = growth as untreated, 0 = no growth, -100 = all killed)
- recorded conditions: 10 µM unless noted
- Description: Growth inhibition of the M14 human tumor cell line is measured as a screen for anti-cancer activity. Cells are grown in 96 well plates and exposed to the test compound for 48 hours. Compounds are tested at a single concentration, which is 10^-5 M for most compounds. The reported endpoint is percent growth (GI% or GIPRCNT), where numbers from 0 - 100% represent growth inhibition, and numbers from -100% - 0 represent cell death. For example, a value of 40 represents 60% growth inhibition. […]
The panel holds about 83,000 compounds, 20% with a hit somewhere; the sample as a whole holds those more often.
metric: growth (%)

- O=C(CCCCCCCCC(=O)N/N=C\c1cc(Cl)ccc1O)N/N=C\c1cc(Cl)ccc1O: 17.7
- Cc1ccc(/C=C/C(=O)c2ccc(NC(=O)CSc3nc4c([nH]3)c(=O)n(C)c(=O)n4C)cc2)c(C)c1: 56.8
- CCn1cc(C2=C(c3cn(C)c4ncccc34)C(=O)NC2=O)c2cccnc21: 81.8
- Cn1c(O)c(C(/C=C/c2ccccc2)=Nc2ccccc2N)c(=O)n(C)c1=O: 104
- CC(/C=C1\SC(=S)N(CC(=O)NC(Cc2c[nH]c3ccccc23)C(=O)O)C1=O)=C\c1ccccc1 (centres undefined): 103
- CCN1C(=O)N(CC)C2C1NN=c1s/c(=C\c3cc4ccccc4[nH]3)c(=O)n12 (centres undefined): 19.8
- CS(=O)(=O)Cc1cnc(C2OCCO2)s1: 99.9
- O=S(=O)(c1ccccc1)N1CCCN(c2nc(-c3ccccc3)nc3nc(-c4ccccc4)oc23)CC1: 109
- CSCCC(NC(=O)c1ccccc1)C(=O)N/N=C1\S/C(=C/c2ccc(Cl)cc2)C(=O)N1C (centres undefined): 86.6

Values were extracted from PubChem BioAssay (NCI).
